Target: T1, human CD20 (human, UniProt P11836 1-297)
T1 sequence (looked up): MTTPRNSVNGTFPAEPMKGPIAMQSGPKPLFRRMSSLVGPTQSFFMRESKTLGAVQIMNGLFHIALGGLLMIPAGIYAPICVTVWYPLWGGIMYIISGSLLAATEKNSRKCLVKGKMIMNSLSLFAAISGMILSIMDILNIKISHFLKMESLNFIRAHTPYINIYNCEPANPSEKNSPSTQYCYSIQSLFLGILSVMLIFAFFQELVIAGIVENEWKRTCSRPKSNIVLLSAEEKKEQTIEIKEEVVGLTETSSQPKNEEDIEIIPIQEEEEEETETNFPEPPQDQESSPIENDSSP
Experiment: cell-based or functional assay
READOUT_NAME: EC50 µg/ml Ramos CDC (µg/mL)
Reply with just the number (in µg/mL).

Could you share which EC50 µg/ml Ramos CDC value was measured for mAb 1.12.3 (antibody, human IgG1, V domains shown) VH: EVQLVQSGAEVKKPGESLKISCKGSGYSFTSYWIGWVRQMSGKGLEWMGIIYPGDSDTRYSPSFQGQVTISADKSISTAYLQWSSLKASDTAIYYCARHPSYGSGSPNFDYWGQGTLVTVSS VL: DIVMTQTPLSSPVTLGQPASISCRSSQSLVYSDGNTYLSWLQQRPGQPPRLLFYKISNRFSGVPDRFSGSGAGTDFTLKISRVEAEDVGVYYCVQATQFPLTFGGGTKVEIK ?
2.07
